molecular target: canine IL-4RA (construct not given) (canine); test: SPR, IL-4RA immobilised, periplasmic Fab
The threshold is inclusive: RU max of exactly 300 RU counts as satisfied; values below receive not satisfied.

Field: example entries. Status: answers known.
binder	qualitative label
FJ2246MP06D11 (Fab, V domains shown) VH: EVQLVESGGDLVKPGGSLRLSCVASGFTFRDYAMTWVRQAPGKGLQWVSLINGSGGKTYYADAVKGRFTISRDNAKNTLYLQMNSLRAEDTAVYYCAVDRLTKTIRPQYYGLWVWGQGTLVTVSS VL: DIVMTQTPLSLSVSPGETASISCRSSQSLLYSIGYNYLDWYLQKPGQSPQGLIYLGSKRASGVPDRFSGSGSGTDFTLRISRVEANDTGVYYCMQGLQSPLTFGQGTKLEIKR	not satisfied
FJ2246MP06D01 (Fab, V domains shown) VH: EVQLVESGGDLVKPGGSLRLSCVASGFPFRDYAMTWVRQAPGKGLQWVSLVNGSGSKTYYADAVKGRFTISRDNAKNTLYLQMNSLRAEDTAVYYCAVDRLTKTIRPQYYGLWVWGQGTLVTVSS VL: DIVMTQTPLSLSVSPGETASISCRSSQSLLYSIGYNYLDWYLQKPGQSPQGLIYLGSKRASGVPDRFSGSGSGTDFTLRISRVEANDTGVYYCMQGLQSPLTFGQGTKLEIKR	satisfied
FJ2246MP10G07 (Fab, V domains shown) VH: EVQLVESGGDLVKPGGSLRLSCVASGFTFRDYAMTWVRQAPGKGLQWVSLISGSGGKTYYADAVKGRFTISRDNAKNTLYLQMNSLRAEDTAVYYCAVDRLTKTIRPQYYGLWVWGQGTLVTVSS VL: DIVMTQTPLSLSVSPGETASISCRSSQSLLYSIGYNYLDWYLQKPGQSPQGLIYLGSKRASGVPDRFSGSGSGTDFTLRISRVEADDTGVYYCMQGLHSPLTFGQGTKLEIK	satisfied
FJ2246MP05A04 (Fab, V domains shown) VH: EVQLVESGGDLVKPGGSLRLSCVASGLPFRDYAMTWVRQAPGKGLQWVSLISGSGGKTYYADAVKGRFTISRDNAKNTLYLQMNSLRAEDTAVYYCAVDRLTKTIRPQYYGLWVWGQGTLVTVSS VL: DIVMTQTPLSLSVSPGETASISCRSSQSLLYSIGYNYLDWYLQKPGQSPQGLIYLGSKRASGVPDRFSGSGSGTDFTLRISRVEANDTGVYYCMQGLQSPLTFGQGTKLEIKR	satisfied

IN: In plain terms: is recorded RU max at least 300 RU for FJ2246MP06E01 (Fab, V domains shown) VH: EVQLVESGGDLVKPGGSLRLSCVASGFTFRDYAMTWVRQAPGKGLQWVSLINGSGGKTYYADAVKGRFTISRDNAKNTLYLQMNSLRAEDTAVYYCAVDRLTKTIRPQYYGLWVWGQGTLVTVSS VL: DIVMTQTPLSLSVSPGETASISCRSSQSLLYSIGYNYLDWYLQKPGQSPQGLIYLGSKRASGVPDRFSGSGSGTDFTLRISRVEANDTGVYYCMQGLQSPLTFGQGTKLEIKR ?
OUT: not satisfied
